Molecular target: T1, Rat ASGR-1 (rat, UniProt P02706 1-284)
T1 construct: Expressed on HEK 293 cells or as membrane prep on beads; cDNA GenBank NM_012503
T1 sequence: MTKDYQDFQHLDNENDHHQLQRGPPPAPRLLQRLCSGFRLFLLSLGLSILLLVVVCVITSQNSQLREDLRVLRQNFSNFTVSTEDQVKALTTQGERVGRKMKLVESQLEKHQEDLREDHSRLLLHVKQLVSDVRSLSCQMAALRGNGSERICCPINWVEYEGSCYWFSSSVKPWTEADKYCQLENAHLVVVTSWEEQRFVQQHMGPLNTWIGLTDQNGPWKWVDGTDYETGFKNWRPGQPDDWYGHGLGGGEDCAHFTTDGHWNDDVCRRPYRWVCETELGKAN
Assay: FACS on transfected HEK 293 cells or membrane preps on beads; binding = signal at least 2x irrelevant IgG

{"Binder": "56E5 (antibody, V domains shown, Tested as hybridoma supernatant at normalized concentration) VH: QVQLVQSGAEVKKPGASVKVSCQASGYTFTGYHMHWVRQAPGQGLEWMGWINPNNNATNYAQKFQGRVTMTRDTSISTAYMELRRLRSDDTAVYHCARDGTSSFDYWGQGTLVTVSS VL: DIQMTQSPSSVSASVGDRVTITCRASQGIRKWLAWYQQKPGKAPKLLIYAASSLQSGVPSRFSGSGSGTDFTLTISSLQPEDFATYYCQQANSFPFTFGPGTKVDIK", "binding result": "no binding"}
{"Binder": "176H4 (antibody, V domains shown, Tested as hybridoma supernatant at normalized concentration) VH: QVQLVESGGGVVQPGRSLRLSCAASGFTFSSYGMHWVRQAPGKGLEWVAIIWYDGSYKYYADSVKGRFTISRDNSKNTLYLQMSSLRAEDTAVYYCARDAHDFWSGYFAYWGQGALVTVSS VL: DIVMTQTPLSLSVTPGQPASISCKSSQSLLHGDGKTYLYWYLQKPGQPPQLLIYEVSNRFSGVPDRFSGSGSGTDFTLKISRVEAEDVGIYYCMQSIQIPWTFGQGTRVEIK", "binding result": "no binding"}
{"Binder": "197G3 (antibody, V domains shown, Tested as hybridoma supernatant at normalized concentration) VH: QVQLVESGGGVVQPGRSLRLSCVASGFTFSSHGMHWVRQAPGKGLEWVAVIWYDGSNKNYADSVKGRFTISRDNSKNTLYLQMNSLRAEDTAVYYCARDPSVGYDGMDVWGQGTTVTVSS VL: DIQMTQSPSSLSASVGDRVTITCRASQGIGNHLAWFQQKPGKAPKSLIYAASSLQSGVPSKFSGSRSGTDFSLTISSLQPEDFATYYCQQYSNYPVTFGPGTKVDIK", "binding result": "no binding"}
